Source: the supplement of paper PMC3937590

Test system: SKBR3
Assay: -log10 GI50 (growth inhibition 50%) (-log10(M)); higher = more potent growth inhibition
Kindly supply the reported -log10 GI50 values for the records listed here.
Form field (numeric): enter value without unit.

Exercise: Query (compound): CC/C(=C(\c1ccccc1)c1ccc(OCCN(C)C)cc1)c1ccccc1 ; field requested: -log10 GI50
Key: 4.37

Exercise: Query (compound): CC[C@@]1(O)C(=O)OCc2c1cc1n(c2=O)Cc2cc3c(CN(C)C)c(O)ccc3nc2-1 ; field requested: -log10 GI50
Key: 7.95

Exercise: Query (compound): CC(C)[C@H](CO)Nc1nc(Nc2cccc(Cl)c2)c2ncn(C(C)C)c2n1 ; field requested: -log10 GI50
Key: 4.19

Exercise: Query (compound): CCn1cc(-c2ccnc3[nH]c(-c4cccc(CN(C)C)c4)cc23)c(-c2ccc(NC(=O)N(C)C)cc2)n1 ; field requested: -log10 GI50
Key: 5.29

Exercise: Query (compound): CC(C)Oc1ccc(C(=O)N[C@H](CNC(=O)CN(C)C)Cc2ccc(-c3cn4cccc([C@H](C)O)c4n3)cc2)cc1Cl ; field requested: -log10 GI50
Key: 7.34

Exercise: Query (compound): Cc1ccc(C(=O)N(CCCN)[C@@H](c2nc3cc(Cl)ccc3c(=O)n2Cc2ccccc2)C(C)C)cc1 ; field requested: -log10 GI50
Key: 7.49

Exercise: Query (compound): CNC(=O)c1c(F)cccc1Nc1nc(Nc2cc3c(cc2OC)CCN3C(=O)CN(C)C)nc2[nH]ccc12 ; field requested: -log10 GI50
Key: 4.99

Exercise: Query (compound): CC(C(C)N1CC(=O)NC(=O)C1)N1CC(=O)NC(=O)C1 (centres undefined) ; field requested: -log10 GI50
Key: 5.22

---

Test system: MDAMB436
Assay: -log10 GI50 (growth inhibition 50%) (-log10(M)); higher = more potent growth inhibition
endpoint_name: -log10 GI50
Form field (numeric): enter value without unit.

Exercise: Query (compound): CCC1=C[C@@H]2CN(C1)Cc1c([nH]c3ccccc13)[C@@](C(=O)OC)(c1cc3c(cc1OC)N(C)[C@H]1[C@@](O)(C(=O)OC)[C@H](OC(C)=O)[C@]4(CC)C=CCN5CC[C@]31[C@@H]54)C2 ; field requested: -log10 GI50
Key: 7.57

Exercise: Query (compound): CC(=O)O[C@@]12CO[C@@H]1C[C@H](O)[C@@]1(C)C(=O)[C@H](O)C3=C(C)[C@@H](OC(=O)[C@H](O)[C@@H](NC(=O)OC(C)(C)C)c4ccccc4)C[C@@](O)([C@@H](OC(=O)c4ccccc4)[C@H]21)C3(C)C ; field requested: -log10 GI50
Key: 8.07

Exercise: Query (compound): COc1cccc2c1C(=O)c1c(O)c3c(c(O)c1C2=O)C[C@@](O)(C(=O)CO)C[C@@H]3O[C@H]1C[C@H](N)[C@H](O)[C@H](C)O1 ; field requested: -log10 GI50
Key: 6.29

Exercise: Query (compound): CCNCCCNC/C=C\CNCCCNCC ; field requested: -log10 GI50
Key: 3.43

Exercise: Query (compound): CC(=O)O[C@H]1C(=O)[C@@]2(C)[C@H]([C@H](OC(=O)c3ccccc3)[C@]3(O)C[C@H](OC(=O)[C@H](O)[C@@H](NC(=O)c4ccccc4)c4ccccc4)C(C)=C1C3(C)C)[C@]1(OC(C)=O)CO[C@@H]1C[C@@H]2O ; field requested: -log10 GI50
Key: 7.65

Exercise: Query (compound): Nc1ccn([C@@H]2O[C@H](CO)[C@@H](O)C2(F)F)c(=O)n1 ; field requested: -log10 GI50
Key: 7.49

Exercise: Query (compound): CCn1cc(-c2ccnc3[nH]c(-c4cccc(CN(C)C)c4)cc23)c(-c2ccc(NC(=O)N(C)C)cc2)n1 ; field requested: -log10 GI50
Key: 7.19

Exercise: Query (compound): CO[C@H]1C[C@@H]2CC[C@@H](C)[C@@](O)(O2)C(=O)C(=O)N2CCCC[C@H]2C(=O)O[C@H]([C@H](C)C[C@@H]2CC[C@@H](O)[C@H](OC)C2)CC(=O)[C@H](C)/C=C(\C)[C@@H](O)[C@@H](OC)C(=O)[C@H](C)C[C@H](C)/C=C/C=C/C=C/1C ; field requested: -log10 GI50
Key: 3.85

Exercise: Query (compound): C=CCNC1=C2C[C@@H](C)C[C@H](OC)[C@H](O)[C@@H](C)/C=C(\C)[C@H](OC(N)=O)[C@@H](OC)/C=C\C=C(/C)C(=O)NC(=CC1=O)C2=O ; field requested: -log10 GI50
Key: 5.96

Exercise: Query (compound): CCc1c2c(nc3ccc(OC(=O)N4CCC(N5CCCCC5)CC4)cc13)-c1cc3c(c(=O)n1C2)COC(=O)[C@]3(O)CC ; field requested: -log10 GI50
Key: 5.18

Exercise: Query (compound): CC/C(=C(\c1ccccc1)c1ccc(OCCN(C)C)cc1)c1ccccc1 ; field requested: -log10 GI50
Key: 4.51

Exercise: Query (compound): CC(C)Oc1ccc(C(=O)N[C@H](CNC(=O)CN(C)C)Cc2ccc(-c3cn4cccc([C@H](C)O)c4n3)cc2)cc1Cl ; field requested: -log10 GI50
Key: 7.92

Exercise: Query (compound): COC1=C2C[C@@H](C)C[C@H](OC)[C@H](O)[C@@H](C)/C=C(\C)[C@H](OC(N)=O)[C@@H](OC)/C=C\C=C(/C)C(=O)NC(=CC1=O)C2=O ; field requested: -log10 GI50
Key: 7.15

Exercise: Query (compound): O=C(O)C1(C(=O)O)CCC1.[NH2-].[NH2-].[Pt+2] ; field requested: -log10 GI50
Key: 4.29

Exercise: Query (compound): COc1cccc2c1C(=O)c1c(O)c3c(c(O)c1C2=O)C[C@@](O)(C(=O)CO)C[C@@H]3O[C@H]1C[C@H](N)[C@@H](O)[C@H](C)O1 [Epirubicin] ; field requested: -log10 GI50
Key: 5.92

Exercise: Query (compound): N.N.[Cl][Pt][Cl] [Cisplatin] ; field requested: -log10 GI50
Key: 5
